# System: SF-539 CNS
# assayName: NCI tumour cell line growth inhibition, 48 h; in the data active = GI50 below about 0.43 µM; inactive = the rest
Entry note: the call must match one of active, inactive

[
  {
    "compound": "CNC(C)[C@H]1CCC2C3CC=C4C(=O)[C@@H](NC(=O)C=C(C)C)CC[C@]4(C)C3CC[C@@]21C (some centres not stated)",
    "label": "inactive"
  },
  {
    "compound": "NCCCOc1cc2ccccc2cc1C(=O)NCCCOc1cc2ccccc2cc1C(=O)Nc1ccc(Cl)cc1O",
    "label": "inactive"
  },
  {
    "compound": "C=C(C)[C@@H]1CC[C@]2(C)[C@H](CC[C@@H]3[C@@H]([C@@](C)(O)CCC=C(C)C)CC[C@]32C)[C@@]1(C)CCC(=O)O",
    "label": "inactive"
  },
  {
    "compound": "COc1cc(/C=C2\\CCC/C(=C\\c3ccc(OCC4CO4)c(OC)c3)C2=O)ccc1OCC1CO1 (configuration not stated)",
    "label": "inactive"
  },
  {
    "compound": "Cc1noc2c1-c1ccccc1C(c1ccc(Cl)cc1)=N[C@H]2CC(N)=O",
    "label": "inactive"
  }
]

Next:
# fetch the recorded call for "O=C(NC1CCCCC1)c1ccc(Nc2ncnc3c2cnn3-c2ccccc2)cc1" here
inactive

---

A collection of compounds and their measured TGI
# System: HS 578T breast
# assayName: NCI tumour cell line growth inhibition, 48 h

A selection of reference data follows.
[
  {
    "compound": "CCOP(=O)(OCC)/C(C#N)=C/c1ccc(-c2cc(C(F)(F)F)cc(C(F)(F)F)c2)o1",
    "TGI": "> 100 µM"
  },
  {
    "compound": "CCc1nc(Cl)c(Cl)c(Cl)n1",
    "TGI": "> 100 µM"
  },
  {
    "compound": "COc1cc2nc(-c3cccs3)nc(Cl)c2cc1OC",
    "TGI": "> 100 µM"
  },
  {
    "compound": "CCOC(=O)C(NC(=O)c1ccccc1)(N1CCN(c2cc3c(cc2F)c(=O)c(C(=O)O)cn3C2CC2)CC1)C(F)(F)F (configuration not stated)",
    "TGI": "66.3 µM"
  },
  {
    "compound": "O=C1/C(=C/N2N=C(c3ccc4ccccc4c3)CC2c2ccccc2O)SC(=S)N1c1cccnc1 (configuration not stated)",
    "TGI": "> 100 µM"
  },
  {
    "compound": "COC(=O)[C@@H](NC(=O)N(Cc1ccccc1)C[C@H](CC(C)C)NC(=O)[C@@H](NC(=O)OC(C)(C)C)C(C)C)C(C)C",
    "TGI": "> 100 µM"
  }
]

// moving on: another record for TGI
# return recorded TGI for input "N/C(=N\S(=O)(=O)c1ccc(-c2ncccc2C(F)(F)F)s1)Nc1ccc(Cl)cc1"
40.5 µM

---

# System: SF-268 CNS
# assayName: NCI tumour cell line growth inhibition, 48 h
Item-by-item account of TGI

[
  {
    "molecule": "COc1cc(/C=C/C(=O)C(C(=O)/C=C/c2ccc(OC(=O)CCNC34CC5CC(CC(C5)C3)C4)c(OC)c2)C(=O)CCNC23CC4CC(CC(C4)C2)C3)ccc1OC(=O)CCNC12CC3CC(CC(C3)C1)C2 (stereo unspecified)",
    "result": "10.9 µM"
  },
  {
    "molecule": "Cc1ccc2occ/c(=N\\Nc3ccccc3)c2c1",
    "result": "> 100 µM"
  },
  {
    "molecule": "CN1CC=C(c2c(N)nc(N)[nH]c2=O)CC1",
    "result": "> 100 µM"
  },
  {
    "molecule": "COc1ccc(/C=C/c2cnccn2)cc1OC",
    "result": "> 10 µM"
  },
  {
    "molecule": "N#Cc1cc2c(cc1Cl)Sc1nnc(Nc3ccccc3)n1S2(=O)=O",
    "result": "10.5 µM"
  },
  {
    "molecule": "COC(=O)C(=O)CC(=O)c1cccc(OC)c1",
    "result": "> 100 µM"
  }
]

Retrieve TGI on SF-268 CNS; query C[n+]1c2ccccc2c(NC(CCCN=C(N)N)C(=O)O)c2ccccc21 (stereo unspecified)
> 100 µM

Give reported TGI for "O=C(CBr)c1ccc2cc(Br)c3ccccc3c2c1" (SF-268 CNS)
47 µM

# assay system SF-268 CNS: give TGI of "Oc1c(Br)ccc2cccnc12"
> 100 µM

Param request: TGI | system SF-268 CNS | item Cc1ccc(C)c(N2C(=O)C(=O)C(c3nc4ccccc4o3)/C(=N/N)C2=O)c1 (stereo unspecified)
> 100 µM

State measured TGI of the molecule "CCOP(=O)(OCC)/C(C#N)=C/c1ccc(-c2cc(C(F)(F)F)cc(C(F)(F)F)c2)o1" with SF-268 CNS.
33.3 µM

---

# Test system: NCI-H23 lung
# assayName: NCI tumour cell line growth inhibition, 48 h
readoutType: GI50

Answered examples (5):
[
  {
    "compound": "Oc1ccc(N=Nc2nccs2)c(O)c1",
    "GI50": "5.36 µM"
  },
  {
    "compound": "COc1ccc(-c2noc(N)c2-c2cc(OC)c3c(c2)OCO3)cc1",
    "GI50": "3.17 µM"
  },
  {
    "compound": "COc1cc(OC)c2sc(-c3ccc(-n4cncc4-c4cc(OC)c(OC)c(OC)c4)cc3)nc2c1",
    "GI50": "6.15 µM"
  },
  {
    "compound": "O=C(Nc1ccc(Cl)cc1)Nc1nccs1",
    "GI50": "11.5 µM"
  },
  {
    "compound": "C=C1C(O)C2C(=C(C)C13CC3)C(=O)C(C)(C)C2OC (stereo not given)",
    "GI50": "> 100 µM"
  }
]

Return value of GI50 for input "COc1ccc(-c2cc(Nc3ccnc(N4CCOCC4)n3)on2)cc1" , no commentary.
0.516 µM

Using the record for "Clc1nc(Cl)c2ncn(Cc3ccccc3Cn3cnc4c(Cl)nc(Cl)nc43)c2n1" , state its measured GI50.
5.26 µM

Report GI50 for "Cc1ccc2[c](c1)[Sn]([c]1ccccc1)([c]1ccccc1)[c]1cc(C)ccc1N2C"
41 µM

Supply recorded GI50 for "NCCCOc1cc2ccccc2cc1C(=O)NCCCOc1cc2ccccc2cc1C(=O)Nc1ccc(Cl)cc1O" here.
0.598 µM

Give a short answer stating reported GI50 for COc1ccc2c(c1)C(C)Cc1c(ncnc1-n1cnc3ccccc31)N2C (stereo not given) .
0.44 µM

---

# Test system: SF-295 CNS
# assayName: NCI tumour cell line growth inhibition, 48 h
readoutType: TGI

Worked examples, 6 compounds total:
[
  {
    "compound": "COc1cc(/C=C2\\CCC/C(=C\\c3ccc(OCC4CO4)c(OC)c3)C2=O)ccc1OCC1CO1 (stereo unspecified)",
    "TGI": "84.4 µM"
  },
  {
    "compound": "CCCCCCc1cc2cc(C(=O)Nc3ccc(F)cc3)c(=N)oc2cc1O",
    "TGI": "> 100 µM"
  },
  {
    "compound": "CCOc1ccc(N=Cc2c3ccccc3nc3ccccc23)cc1",
    "TGI": "> 100 µM"
  },
  {
    "compound": "CC(NC(=O)Cc1ccccc1)NC(=O)C(C)C(=O)NCc1ccccc1 (stereo unspecified)",
    "TGI": "> 100 µM"
  },
  {
    "compound": "Oc1ccc(N=Nc2nccs2)c(O)c1",
    "TGI": "15.1 µM"
  },
  {
    "compound": "O=C1c2ccccc2C(=O)c2c(NCCN=Cc3ccccc3O)cccc21",
    "TGI": "5.01 µM"
  }
]

API: the following record is the query input.
Give the reported value of TGI for this record: "O=C1c2c(Br)sc(Br)c2C(=O)C1(O)O"
> 100 µM

---

# System: HS 578T breast
# assayName: NCI tumour cell line growth inhibition, 48 h
readoutType: TGI (µM)
Quick reminder: number only, in µM, skip the unit.

Name the recorded TGI of the item "Clc1nc(Cl)c2ncn(Cc3ccccc3Cn3cnc4c(Cl)nc(Cl)nc43)c2n1" in your answer.
9.39

Indicate its recorded TGI; the compound in question is "O=[N+]([O-])c1c(F)c(F)c2c(c1F)N(CCCCCl)c1ccccc1S2"
74.4

Provide TGI value for the following compound: "O=Cc1ccc(-c2ccc(-c3ccc(CO)s3)o2)s1"
59.5

Identify TGI associated with the compound CCCCC1Cc2cc(O)ccc2-c2nc3cc(O)ccc3n21 (stereo not given) (tested in a mixture with another compound)
35.1

---

Parameter TGI: see the listing below.
# Tested on: NCI/ADR-RES ovarian
# assayName: NCI tumour cell line growth inhibition, 48 h

[
  {
    "compound": "CN1CCCOC(c2ccc(Cl)cc2)O1 (stereo unspecified)",
    "TGI": "> 100 µM"
  },
  {
    "compound": "COc1ccc(CNc2nc(NC3CCCCC3)nc(NC3CCCCC3)n2)cc1",
    "TGI": "> 100 µM"
  },
  {
    "compound": "O=C1/C(=C/N2N=C(c3ccc4ccccc4c3)CC2c2ccccc2O)SC(=S)N1c1cccnc1 (stereo unspecified)",
    "TGI": "> 100 µM"
  },
  {
    "compound": "CC(Cl)CN1c2ccccc2Sc2ccc(Cl)cc21 (stereo unspecified)",
    "TGI": "> 10 µM"
  }
]

Please list TGI recorded for the compound COC(=O)N[C@H](C(=O)NC(OCc1ccccc1)C1COC(C)(C)O1)C(C)O[Si](C)(C)C(C)(C)C (stereo partly specified)
> 100 µM

Tell us which TGI value is on record for "CN1CCc2c(sc3[nH]c(=S)[nH]c(=S)c23)C1"
> 100 µM

Find the measured TGI of "COc1cc(OC)c2sc(-c3ccc(-n4cncc4-c4cc(OC)c(OC)c(OC)c4)cc3)nc2c1" and report it.
> 100 µM

Look up and report measured TGI for this entry: "CC1(C)N=C(N)N=C(N)N1c1cccc(OCCOc2cccc([N+](=O)[O-])c2)c1"
> 100 µM

Supply recorded TGI for CS(=O)(=O)N1CC(CCl)c2ccc(O)cc21 (stereo unspecified) here.
17.4 µM

Using the record for "N/C(=N\S(=O)(=O)c1ccc(-c2ncccc2C(F)(F)F)s1)Nc1ccc(Cl)cc1" , state its measured TGI.
41.1 µM
